Recorded values, source PubChem BioAssay AID2289.

Assay: qHTS Assay for Modulators of miRNAs and/or Inhibitors of miR-21; note: potency is the fitted concentration of half-maximal effect; nearly all actives have a fitted effect of over 55% in size
Conditions: HeLa miR-21-FLuc reporter, luciferase luminescence, 48 h; actives lower the signal
Text: MLSCN Grant: 1 R21 NS059478-01 Assay Provider: Qihong Huang, The Wistar Institute NCGC Assay Overview: MicroRNAs (miRNAs) are endogenously encoded small (~20-25 nucleotides), nonprotein-coding RNAs that are involved in post-transcriptional repression of target messenger RNAs (mRNAs) (Le and Hannon, 2004). […]
Screen size: about 340,000 compounds; about 3,300 (0.97%) were called active. Another 9% or so got no clear call; they are omitted. Some of the results follow.
value.kind: Potency

Example entries and their recorded answers appear below.
O=C1C=C(N2CCCCCC2)C(=O)N1c1ccc(Cl)cc1 = 5.21 µM (active)
NC(=O)NC(=O)C(Nc1ccc(N2CCCCC2)cc1)c1ccccc1 (stereo not drawn) = 13.1 µM (active)
O=C(CSCc1ccccc1)Nc1cccc(F)c1 = 13.1 µM (active)
COc1ccc(CNc2nc3nc(C)c(Cl)c(C)n3n2)cc1 = 16.5 µM (active)
Cc1ccn(-c2cccc(-n3ccc(C)n3)n2)n1 = 2.61 µM (active)

The reported value for `N#Cc1ccc(N2Cc3ccccc3C2=NC(=O)c2cccs2)cc1` in terms of Potency is 8.26 µM (active)

Record `COc1cccc(/C=N/NC(=O)c2cccc(N3CCCC3=O)c2)c1` . Reported Potency: 5.85 µM (active)

The recorded Potency for entry `Cc1ccc(/C=C/C(=O)Nc2ncc(C)s2)o1` equals 1.04 µM (active)

---

Assay: qHTS Assay for Modulators of miRNAs and/or Inhibitors of miR-21; note: potency is the fitted concentration of half-maximal effect; nearly all actives have a fitted effect of over 55% in size
Conditions: HeLa miR-21-FLuc reporter, luciferase luminescence, 48 h; actives lower the signal
Description: MLSCN Grant: 1 R21 NS059478-01 Assay Provider: Qihong Huang, The Wistar Institute NCGC Assay Overview: MicroRNAs (miRNAs) are endogenously encoded small (~20-25 nucleotides), nonprotein-coding RNAs that are involved in post-transcriptional repression of target messenger RNAs (mRNAs) (Le and Hannon, 2004). […]
The whole screen tested about 340,000 compounds, of which about 3,300 (0.97%) were called active. About 9% were inconclusive and are not listed. The list shows a part of the results.
value.kind: Potency

Some solved entries appear below for comparison.
c1ccc(SCc2nc(-c3ccccn3)no2)cc1 = 2.82 µM (active)
CCCOc1ccc(/C=N/Nc2ccc(C(=O)O)cc2)c(OCCC)c1 = 16.5 µM (active)

The compound listed as `O=C(NC(=S)Nc1ccccn1)c1ccco1` shows Potency equal to 3.69 µM (active)

Lab note: `O=C(CCCc1ccccc1)Nc1cccc(C(=O)O)c1` gave Potency of 0.464 µM (active)

CC1SCC(NC(=O)c2ccc(Cl)cc2)CS1 (centres undefined) has a reported Potency of 16.5 µM (active)

Potency in this record for `COc1cccc(NC(=S)Nc2cc(C)cc(C)n2)c1` : 4.65 µM (active)

Input `COc1ccc(Nc2nc(-c3cccs3)cs2)c(OC)c1` . Output Potency: 1.04 µM (active)

Potency measured on CC1=NN(C(=O)c2ccoc2C)C(O)(C(F)(F)F)C1 (centres undefined) = 10.4 µM (active)

In plain terms, `O=C(O)c1ccc(N/N=C/C2=Cc3ccccc3OC2)cc1` has a documented Potency of 1.17 µM (active)

Looking up `COc1cccc(NC(=O)C(=O)NCCc2ccc(F)cc2)c1` , I found its Potency recorded as 11.7 µM (active)
